- assayComment: Cmax in mouse at 5 mg/kg, po
- Format: ADME, organism-based
- measurementConditions: in vivo
attributeMeasured: Cmax (ng/mL)
Please state the figure in ng/mL; there is no need to write the unit.

Query Cmax for Cc1c(Nc2c(F)ccc(NS(=O)(=O)CCCF)c2Cl)ccc2ncn(C)c(=O)c12
4700

* * *

- assayComment: Drug concentration in mouse plasma at 10 mg/kg, po after 4 hrs
- Assay type: ADME, organism-based
attributeMeasured: concentration at 4 h (ng/mL)
Please state the figure in ng/mL; there is no need to write the unit.

Query concentration at 4 h for Cc1c(Nc2c(F)ccc(NS(=O)(=O)CCCF)c2Cl)ccc2ncn(C)c(=O)c12 [TINLORAFENIB]
9900

* * *

- assayComment: Solubility in stimulated intestinal fluid at pH 6.5
- Type: ADME
- measurementConditions: simulated intestinal fluid
attributeMeasured: solubility (µg/mL)
Please state the figure in µg/mL; there is no need to write the unit.

Query solubility for Cc1c(Nc2c(F)ccc(NS(=O)(=O)CCCF)c2Cl)ccc2ncn(C)c(=O)c12
7.6

* * *

- assayComment: Cmax in mouse at 30 mg/kg, po
- Format: ADME, organism-based
- measurementConditions: in vivo
attributeMeasured: Cmax (ng/mL)
Please state the figure in ng/mL; there is no need to write the unit.

Query Cmax for Cc1c(Nc2c(F)ccc(NS(=O)(=O)CCCF)c2Cl)ccc2ncn(C)c(=O)c12 [TINLORAFENIB]
18000

* * *

- assayComment: AUCinfinity in mouse at 10 mg/kg, po
- Format: ADME, organism-based
- measurementConditions: in vivo
attributeMeasured: AUC(0-inf) (ng·h/mL)
Please state the figure in ng·h/mL; there is no need to write the unit.

Query AUC(0-inf) for Cc1c(Nc2c(F)ccc(NS(=O)(=O)CCCF)c2Cl)ccc2ncn(C)c(=O)c12
86000

* * *

- assayComment: Plasma protein binding in human assessed as unbound fraction
- Type: ADME, cell-free
attributeMeasured: fraction unbound
// print number alone

Query fraction unbound for Cc1c(Nc2c(F)ccc(NS(=O)(=O)CCCF)c2Cl)ccc2ncn(C)c(=O)c12 [TINLORAFENIB]
0.009

* * *

- assayComment: Chemical stability in MeOH/NaHCO3/glutathione assessed as drug metabolism assessed as SN2 substitution after 50 degreeC overnight incubation
- Type: physicochemical
- measurementConditions: read-out: Drug metabolism
attributeMeasured: degraded

Query degraded for Cc1c(Nc2c(F)ccc(NS(=O)(=O)CCCF)c2Cl)ccc2ncn(C)c(=O)c12
< 1%

* * *

- assayComment: Tmax in mouse at 5 mg/kg, po
- Type: ADME, organism-based
- measurementConditions: in vivo
attributeMeasured: Tmax (h)
Please state the figure in h; there is no need to write the unit.

Query Tmax for Cc1c(Nc2c(F)ccc(NS(=O)(=O)CCCF)c2Cl)ccc2ncn(C)c(=O)c12 [TINLORAFENIB]
1

* * *

- measuredOn: Voltage-gated inwardly rectifying potassium channel KCNH2 (Homo sapiens, UniProt Q12809)
- Sequence (Q12809 whole entry): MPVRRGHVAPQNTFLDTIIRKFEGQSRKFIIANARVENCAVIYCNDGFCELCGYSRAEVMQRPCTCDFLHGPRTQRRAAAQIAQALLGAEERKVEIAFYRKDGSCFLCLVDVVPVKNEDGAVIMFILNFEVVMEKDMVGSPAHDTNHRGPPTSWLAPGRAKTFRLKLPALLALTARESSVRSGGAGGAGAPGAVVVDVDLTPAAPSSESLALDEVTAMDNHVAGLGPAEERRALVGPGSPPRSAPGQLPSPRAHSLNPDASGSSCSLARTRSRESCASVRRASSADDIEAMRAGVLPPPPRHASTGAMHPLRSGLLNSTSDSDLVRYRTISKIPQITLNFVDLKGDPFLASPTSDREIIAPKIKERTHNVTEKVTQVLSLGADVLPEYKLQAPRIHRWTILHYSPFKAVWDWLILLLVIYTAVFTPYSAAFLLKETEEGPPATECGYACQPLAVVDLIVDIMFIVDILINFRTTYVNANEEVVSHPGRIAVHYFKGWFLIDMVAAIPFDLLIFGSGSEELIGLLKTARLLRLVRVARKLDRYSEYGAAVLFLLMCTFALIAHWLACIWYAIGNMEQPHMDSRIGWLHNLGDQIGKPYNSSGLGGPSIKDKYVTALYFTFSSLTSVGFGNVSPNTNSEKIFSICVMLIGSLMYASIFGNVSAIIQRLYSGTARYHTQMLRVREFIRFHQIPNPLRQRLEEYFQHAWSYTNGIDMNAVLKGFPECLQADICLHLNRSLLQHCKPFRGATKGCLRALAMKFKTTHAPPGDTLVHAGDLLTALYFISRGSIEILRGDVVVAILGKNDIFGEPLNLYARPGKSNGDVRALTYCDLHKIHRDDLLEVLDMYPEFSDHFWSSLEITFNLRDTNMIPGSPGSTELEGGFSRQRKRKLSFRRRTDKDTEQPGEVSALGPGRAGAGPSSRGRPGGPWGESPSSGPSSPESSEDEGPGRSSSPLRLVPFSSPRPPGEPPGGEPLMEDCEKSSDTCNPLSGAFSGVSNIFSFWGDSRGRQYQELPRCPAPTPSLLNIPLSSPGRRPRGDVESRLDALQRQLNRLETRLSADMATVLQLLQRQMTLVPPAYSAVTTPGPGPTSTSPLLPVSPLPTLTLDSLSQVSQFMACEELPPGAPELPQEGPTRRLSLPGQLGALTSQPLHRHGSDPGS
attributeMeasured: pIC50
Just so you know, pIC50 here is -log10 of the concentration in molar units; reply with that number alone.

Query pIC50 for Cc1c(Nc2c(F)ccc(NS(=O)(=O)CCCF)c2Cl)ccc2ncn(C)c(=O)c12 [TINLORAFENIB]
4.30

* * *

- assayComment: Apparent permeability across apical to basolateral side in LLC-PK1 cells
- Format: ADME, cell-based, Sus scrofa
- measurementConditions: pig
attributeMeasured: Papp A→B (×10⁻⁶ cm/s)
Please state the figure in ×10⁻⁶ cm/s; there is no need to write the unit.

Query Papp A→B for CCCS(=O)(=O)Nc1ccc(F)c(N(CC)c2ccc3ncn(C)c(=O)c3c2)c1F
19

Query Papp A→B for CCS(=O)(=O)Nc1ccc(F)c(Nc2ccc3ncn(C)c(=O)c3c2C)c1Cl
36

Query Papp A→B for Cc1c(Nc2c(F)ccc(NS(=O)(=O)CC(C)C)c2Cl)ccc2ncn(C)c(=O)c12
27

Query Papp A→B for CCCS(=O)(=O)Nc1ccc(F)c(Nc2ccc3ncn(C)c(=O)c3c2)c1F
26

Query Papp A→B for CCCS(=O)(=O)Nc1ccc(F)c(Nc2ccc3ncn(C)c(=O)c3c2Cl)c1Cl
24

* * *

- assayComment: Plasma protein binding in dog assessed as unbound fraction
- Format: ADME, cell-free, Canis lupus familiaris
attributeMeasured: fraction unbound
// print number alone

Query fraction unbound for Cc1c(Nc2c(F)ccc(NS(=O)(=O)CCCF)c2Cl)ccc2ncn(C)c(=O)c12
0.017

* * *

- assayComment: Drug concentration in mouse plasma at 5 mg/kg, po after 2 hrs
- Assay type: ADME, organism-based
attributeMeasured: concentration at 2 h (ng/mL)
Please state the figure in ng/mL; there is no need to write the unit.

Query concentration at 2 h for Cc1c(Nc2c(F)ccc(NS(=O)(=O)CCCF)c2Cl)ccc2ncn(C)c(=O)c12
4200

* * *

- assayComment: Dissociation constant, pKa of the compound
- Type: physicochemical
Overview of recorded pKa for various molecules

1. Cc1c(Nc2c(F)ccc(NS(=O)(=O)CCCF)c2Cl)ccc2ncn(C)c(=O)c12 [TINLORAFENIB]; 7.41

We now examine a further molecule.
Query pKa for CCCS(=O)(=O)Nc1ccc(F)c(Nc2ccc3ncn(C)c(=O)c3c2C)c1Cl
7.88

* * *

Overview of recorded IC50 for various compounds
- measuredOn: Serine/threonine-protein kinase B-raf (Homo sapiens, UniProt P15056, V600E)
- Sequence (P15056 2-766 V600E limits assumed): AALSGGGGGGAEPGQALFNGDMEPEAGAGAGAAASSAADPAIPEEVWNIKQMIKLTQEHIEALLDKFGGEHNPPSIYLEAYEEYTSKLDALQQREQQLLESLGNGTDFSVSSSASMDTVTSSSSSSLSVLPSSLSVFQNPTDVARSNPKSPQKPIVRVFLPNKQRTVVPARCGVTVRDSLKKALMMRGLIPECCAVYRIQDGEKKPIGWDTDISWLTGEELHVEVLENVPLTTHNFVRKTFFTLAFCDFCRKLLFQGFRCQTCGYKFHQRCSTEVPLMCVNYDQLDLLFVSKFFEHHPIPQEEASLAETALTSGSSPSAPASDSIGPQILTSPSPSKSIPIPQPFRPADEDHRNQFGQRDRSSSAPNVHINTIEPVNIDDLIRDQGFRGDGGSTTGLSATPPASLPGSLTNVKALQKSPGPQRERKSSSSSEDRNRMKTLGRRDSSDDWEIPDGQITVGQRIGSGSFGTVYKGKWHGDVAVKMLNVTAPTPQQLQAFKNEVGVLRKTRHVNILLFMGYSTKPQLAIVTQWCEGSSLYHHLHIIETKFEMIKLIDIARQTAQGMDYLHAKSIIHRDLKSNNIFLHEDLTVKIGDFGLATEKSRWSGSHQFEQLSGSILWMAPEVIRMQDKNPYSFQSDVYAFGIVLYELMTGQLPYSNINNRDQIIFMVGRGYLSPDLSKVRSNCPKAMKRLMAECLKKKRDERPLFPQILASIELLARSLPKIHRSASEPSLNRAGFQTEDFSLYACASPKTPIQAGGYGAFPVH
- assayComment: Inhibition of 6-His tagged BRAF V600E mutant (445 to 723 residues) (unknown origin)
Please state the figure in nM; there is no need to write the unit.

# annotated cases, reported IC50 shown
1) CCCS(=O)(=O)Nc1ccc(F)c(N(C)c2ccc3ncn(C)c(=O)c3c2)c1Cl; 54.9
2) CCCS(=O)(=O)Nc1ccc(F)c(Nc2ccc3ncn(CC)c(=O)c3c2C)c1Cl; 3.61
3) CCCS(=O)(=O)Nc1ccc(F)c(Nc2ccc3ncn(C)c(=O)c3c2C)c1Cl; 14.5
4) CCCS(=O)(=O)Nc1ccc(F)c(Nc2ccc3ncn(C)c(=O)c3c2)c1Cl; 13.8
5) CCCS(=O)(=O)Nc1ccc(F)c(Nc2ccc3ncn(CC4CC4)c(=O)c3c2C)c1Cl; 17.5
6) CCCS(=O)(=O)Nc1ccc(F)c(Nc2ccc3ncn(C4CC4)c(=O)c3c2C)c1Cl; 11.7
7) Cc1c(Nc2c(F)ccc(NS(=O)(=O)CC(C)C)c2Cl)ccc2ncn(C)c(=O)c12; 50.8
8) CCCS(=O)(=O)Nc1ccc(F)c(Nc2ccc3ncn(C)c(=O)c3c2)c1F; 88
9) CCCS(=O)(=O)Nc1ccc(F)c(N(C)c2ccc3ncn(C)c(=O)c3c2)c1F; 69.2

We now examine a further compound.
Query IC50 for CCCS(=O)(=O)Nc1ccc(Cl)c(Nc2ccc3ncn(C)c(=O)c3c2)c1F
60.3

* * *

- assayComment: Substrate activity at BCRP in LLC-PK1 cells assessed as efflux ratio of apparent permeability from basolateral to apical side over apical to basolateral side
- Type: ADME, cell-based, Sus scrofa
- measurementConditions: pig
attributeMeasured: Ratio
// print number alone

# annotated cases, reported Ratio shown
1) CCS(=O)(=O)Nc1ccc(F)c(Nc2ccc3ncn(C)c(=O)c3c2C)c1Cl; 1.3
2) CCCS(=O)(=O)Nc1ccc(F)c(Nc2ccc3ncn(C(C)C)c(=O)c3c2C)c1Cl; 1.5
3) CCCS(=O)(=O)Nc1ccc(F)c(Nc2ccc3ncn(CC)c(=O)c3c2C)c1Cl; 0.9
4) Cc1c(Nc2c(F)ccc(NS(=O)(=O)CC3CC3)c2Cl)ccc2ncn(C)c(=O)c12; 1.1
5) CCC(C)S(=O)(=O)Nc1ccc(F)c(Nc2ccc3ncn(C)c(=O)c3c2C)c1Cl (stereo not drawn); 0.8

Query Ratio for CCCS(=O)(=O)Nc1ccc(F)c(C(=O)c2c[nH]c3ncc(-c4ccc(Cl)cc4)cc23)c1F [VEMURAFENIB]
15.2

Query Ratio for CCCS(=O)(=O)Nc1ccc(F)c(N(C)c2ccc3ncn(C)c(=O)c3c2)c1Cl
1.3

Query Ratio for CCCS(=O)(=O)Nc1ccc(F)c(Nc2ccc3ncn(C)c(=O)c3c2)c1F
21.3

Query Ratio for CC(C)(C)c1nc(-c2cccc(NS(=O)(=O)c3c(F)cccc3F)c2F)c(-c2ccnc(N)n2)s1 [DABRAFENIB]
11.7

Query Ratio for CCCS(=O)(=O)Nc1ccc(F)c(N(C)c2ccc3ncn(C)c(=O)c3c2)c1F
2.6

Query Ratio for CCCS(=O)(=O)Nc1ccc(F)c(Nc2ccc3ncn(C)c(=O)c3c2)c1Cl
6

Query Ratio for CCCS(=O)(=O)Nc1ccc(F)c(Nc2ccc3ncn(C4CC4)c(=O)c3c2C)c1Cl
1.6

* * *

- assayComment: AUCinfinity in mouse at 5 mg/kg, po
- Format: ADME, organism-based
- measurementConditions: in vivo
attributeMeasured: AUC(0-inf) (ng·h/mL)
Please state the figure in ng·h/mL; there is no need to write the unit.

Query AUC(0-inf) for Cc1c(Nc2c(F)ccc(NS(=O)(=O)CCCF)c2Cl)ccc2ncn(C)c(=O)c12
28000
